# System: U251 CNS
# assay text: NCI-60 one-dose screen, 48 h
# condition details: 10 µM unless noted
This is part of a sample that, as a whole, favours compounds with a hit. Of some 83,000 tested, about 20% had one in any assay. Activity calls are given as the source filed them. The calls were made as follows: active = growth percent below 10; inactive = the rest.
Field 'call' accepts active, inactive

Solved cases (2 shown):
compound	label
CCCCn1c(-c2ccc(F)cc2)nc2cc(OC)c(OC)cc2c1=O	inactive
O=C(O)Cn1ccc2ccccc21	inactive

Q: What did the test return for "c1ccc(C(Nc2ccccn2)(c2ccccc2)c2ccccc2)cc1" ?
Result: inactive

Q: What did the test return for "COc1cc2c(cc1I)-c1c(cc(OC)c(OC)c1OC)CC[C@@H]2NC(C)=O" ?
Result: inactive

Q: What did the test return for CC(CN1CCN(CCOCCO)CC1)CN1c2ccccc2Sc2ccc(Cl)cc21 (stereo not given) ?
Result: inactive

Q: What did the test return for "COc1cc2nccc(Oc3ccc(NC(=O)C4(C(=O)Nc5ccc(F)cc5)CC4)cc3)c2cc1Oc1ccc(N)cn1" ?
Result: inactive

Q: What did the test return for "COc1cc2c(cc1C)NC(=O)/C2=C\c1c[nH]c2ccccc12" ?
Result: inactive

Q: What did the test return for "N#Cc1ccc(NC(=O)Nc2nc3ccc(OC(F)(F)F)cc3s2)cc1" ?
Result: active

Q: What did the test return for "O=NN(CC(=O)NNc1ccccc1)CC(=O)NNc1ccccc1" ?
Result: inactive

Q: What did the test return for C=C(C)C1CCC2(C(=O)O)CCC3(C)C(CCC4C5(C)CCC(O)C(C)(C)C5CCC43C)C12 (stereo not given) ?
Result: active

FYI, the data here is from PubChem BioAssay (NCI).
